System: OVCAR-4 ovarian
ASSAY SUMMARY: NCI tumour cell line growth inhibition, 48 h
Record form. Attribute: TGI. Fill in for each entry.
One number for each entry, in µM.

{"MOLECULE": "Cc1cc(O)c(C2=NN(c3ccc(S(N)(=O)=O)cc3)C(c3ccc(N(C)C)cc3)C2)c(C)c1Cl (stereo not given)", "TGI (µM)": 27.6}

Ask | Would you kindly share the measured TGI for O=C(O)CCC/C=C\C[C@H]1C=CC(=O)/C1=C/C[C@@H](O)CCc1cccc(C(F)(F)F)c1 ?
Reply | 16.8

###

Test system: SN12C renal
ASSAY SUMMARY: NCI tumour cell line growth inhibition, 48 h
Record form. Attribute: TGI. Fill in for each entry.

Here is how some molecules turned out for TGI.
{"MOLECULE": "COc1ccc(/C=C2\\CCC(C)/C(=C\\c3ccc(OC)c(OC)c3)C2=O)cc1OC (stereo not given)", "TGI": "36.5 µM"}
{"MOLECULE": "O=C(Nc1cc2c(=O)oc3ccccc3c2oc1=O)c1cccnc1", "TGI": "> 100 µM"}
{"MOLECULE": "O=S(=O)(N/N=C/c1cccc(Cl)c1Cl)c1ccccc1", "TGI": "> 100 µM"}
{"MOLECULE": "CCN(CC)CCCC(C)Nc1ccnc2ccc3nn(C)nc3c12 (stereo not given)", "TGI": "> 100 µM"}
{"MOLECULE": "Cc1nc([C@H]2CC[C@H]3[C@@H]4CCC5=CC(=O)CC[C@]5(C)[C@H]4CC[C@]23C)cs1", "TGI": "> 100 µM"}

Dear colleague, could you send me TGI for each of the items below? Thanks.
1. COc1cc(/C=C/c2cc(/C=C/c3ccc(O)c(OC)c3)nc(N)n2)ccc1O
2. CS(=O)(=O)CCNCc1ccc(-c2ccc3ncnc(Nc4ccc(OCc5cccc(F)c5)c(C(F)(F)F)c4)c3c2)o1

Reply |
> 100 µM
14.9 µM

Dear colleague, could you send me TGI for each of the items below? Thanks.
1. COc1cc(Nc2ncc(F)c(Nc3ccc4c(n3)NC(=O)C(C)(C)O4)n2)cc(OC)c1OC
2. CN(CC#N)C1CCCC[C@H]1O (stereo not given in full)
3. CCCCc1ccc(Nc2nc(=S)c3[nH]cnc3[nH]2)cc1
4. CN(C)Cc1cc(C(C)(C)C)ccc1-c1ccc(C(C)(C)C)cc1CN(C)C
5. COc1cc(C2SC(N)=Nc3c2c(C)nn3C(=O)c2ccccc2O)ccc1O (stereo not given)
6. COc1cc2c(cc1OC)C(OC)N(C)c1c-2ccc2cc3c(cc12)OCO3 (stereo not given)
7. CCN1C[C@]2(C)CC[C@H](OC)C34C1C([C@H](OC(C)=O)[C@@H]32)[C@@]1(OC)C[C@H](OC)[C@H]2C[C@@H]4[C@@H]1[C@H]2O
8. Nc1ncc(Cl)c(NCC2(CO)CC(CCc3ccccc3)C2)n1 (stereo not given)

Reply |
1. > 100 µM
2. > 100 µM
3. 59 µM
4. > 100 µM
5. > 10 µM
6. 21.1 µM
7. > 100 µM
8. > 100 µM

Dear colleague, could you send me TGI for each of the items below? Thanks.
1. C#CCN(N=O)C(=O)NC(CCCNC(=O)OCc1ccccc1)C(=O)OCc1ccccc1 (stereo not given)
2. Oc1ccccc1C=Nc1ccc(-c2nc3ccccc3[nH]2)cc1
3. O=C(O)Cc1ccc(Oc2nc3ccccc3nc2C(=O)O)cc1
4. NC(=O)c1coc(C2OC(CO)C(O)C2O)n1 (stereo not given)

Reply |
1: > 100 µM; 2: > 100 µM; 3: > 100 µM; 4: > 100 µM
